Just for reference, ChEMBL document CHEMBL2203275 is where these values come from.

- target or test system: Dual specificity protein phosphatase 3 (Homo sapiens)
- Sequence (P51452 whole entry): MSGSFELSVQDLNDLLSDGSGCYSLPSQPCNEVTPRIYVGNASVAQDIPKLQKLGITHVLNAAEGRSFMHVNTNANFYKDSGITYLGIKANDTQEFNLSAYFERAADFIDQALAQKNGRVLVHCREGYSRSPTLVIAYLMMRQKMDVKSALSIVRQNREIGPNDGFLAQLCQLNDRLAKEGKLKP
- assay name: Inhibition of VHR using fluorescein 3,6 diphosphate as substrate measured for 1 hr in presence of 1 mM dithiothreitol
experimental readout: pIC50
pIC50 here: minus log base 10 of the concentration, concentration in moles per litre.

QUERY: Consider the compound shown here: O=C1N=C(NCCCCCNC2=NC(=O)/C(=C/c3ccc(O)cc3)S2)S/C1=C\c1ccc(O)cc1 What is its recorded pIC50?
RESULT: 4.12

====

- target or test system: Tyrosine-protein phosphatase non-receptor type 1 (Homo sapiens)
- assay name: Inhibition of PTP1B using fluorescein 3,6 diphosphate as substrate at 100 uM measured for 1 hr in presence of 1 mM dithiothreitol
Hi, to clarify the labels: met covers inhibition from 30% upward, not met covers anything below 30%.

As a guide, the following entries are already answered.
# input smiles, class assignment
data = [
    ("O=C1N=C(NCc2ccccc2)S/C1=C\\c1ccc(O)cc1", "met"),
    ("O=C1N=C(NCCN2CCN(CCNC3=NC(=O)/C(=C/c4cc(Br)c(O)c(Br)c4)S3)CC2)S/C1=C\\c1ccc(O)cc1", "met"),
    ("CNC1=NC(=O)/C(=C/c2ccc(O)cc2)S1", "met"),
]

Let us examine a further case.
QUERY: Please check the record O=C1N=C(NCCN2CCN(CCNC3=NC(=O)/C(=C/c4ccc(O)cc4)S3)CC2)S/C1=C\C=C\c1ccccc1 and state if its inhibition is at or above 30%.
RESULT: not met
